Literature compilation of pIC50 measurements on Xanthine dehydrogenase/oxidase (Bos taurus, UniProt P80457).
Sequence (P80457 whole entry): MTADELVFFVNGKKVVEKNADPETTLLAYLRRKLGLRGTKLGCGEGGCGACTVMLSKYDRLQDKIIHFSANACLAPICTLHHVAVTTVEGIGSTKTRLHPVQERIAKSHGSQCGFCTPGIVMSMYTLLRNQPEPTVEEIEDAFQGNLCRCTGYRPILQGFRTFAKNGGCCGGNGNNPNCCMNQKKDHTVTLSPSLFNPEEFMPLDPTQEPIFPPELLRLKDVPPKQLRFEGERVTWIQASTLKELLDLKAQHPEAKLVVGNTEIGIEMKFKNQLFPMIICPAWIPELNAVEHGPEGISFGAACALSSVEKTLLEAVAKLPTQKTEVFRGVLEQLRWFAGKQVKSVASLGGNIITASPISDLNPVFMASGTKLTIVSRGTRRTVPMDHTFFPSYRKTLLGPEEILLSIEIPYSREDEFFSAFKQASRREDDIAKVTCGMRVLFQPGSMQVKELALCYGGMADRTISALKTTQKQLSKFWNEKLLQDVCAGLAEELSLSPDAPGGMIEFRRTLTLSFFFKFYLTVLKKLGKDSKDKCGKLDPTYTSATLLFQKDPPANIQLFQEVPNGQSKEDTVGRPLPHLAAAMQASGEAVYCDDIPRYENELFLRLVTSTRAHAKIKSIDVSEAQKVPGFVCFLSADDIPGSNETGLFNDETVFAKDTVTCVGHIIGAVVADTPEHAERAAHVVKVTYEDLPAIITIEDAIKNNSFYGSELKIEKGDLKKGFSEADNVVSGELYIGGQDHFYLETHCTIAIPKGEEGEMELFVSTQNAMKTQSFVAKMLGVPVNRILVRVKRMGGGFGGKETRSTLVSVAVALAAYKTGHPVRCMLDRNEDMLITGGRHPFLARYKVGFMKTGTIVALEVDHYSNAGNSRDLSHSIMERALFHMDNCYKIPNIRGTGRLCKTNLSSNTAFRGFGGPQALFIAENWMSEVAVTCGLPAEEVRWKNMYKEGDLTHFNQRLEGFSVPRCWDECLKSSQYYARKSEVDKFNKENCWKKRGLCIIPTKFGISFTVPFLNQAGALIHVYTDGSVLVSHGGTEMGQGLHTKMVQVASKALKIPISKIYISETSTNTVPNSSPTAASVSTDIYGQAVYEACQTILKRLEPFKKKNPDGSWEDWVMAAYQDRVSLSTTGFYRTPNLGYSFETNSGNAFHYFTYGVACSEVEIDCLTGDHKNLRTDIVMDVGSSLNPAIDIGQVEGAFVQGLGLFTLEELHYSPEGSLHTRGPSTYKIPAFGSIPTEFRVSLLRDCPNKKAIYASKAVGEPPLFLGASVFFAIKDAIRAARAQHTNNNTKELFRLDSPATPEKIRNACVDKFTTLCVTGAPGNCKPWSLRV
Give bare numbers, as −log10 of the molar value.

[
  {
    "Sample smiles": "O=C(O)c1ccc(O)c(/C=C/C(=O)c2cccc3ccccc23)c1",
    "Measured result": 6.65
  },
  {
    "Sample smiles": "N#Cc1cn(CC2CCCC2)c2ccc(-c3cc(C(=O)O)no3)cc12",
    "Measured result": 6.57
  },
  {
    "Sample smiles": "N#Cc1cn(Cc2ccc(F)cc2)c2ccc(-c3cc(C(=O)O)no3)cc12",
    "Measured result": 6.22
  },
  {
    "Sample smiles": "O=C(O)c1ccc(O)c(/C=C/C(=O)c2ccc3ncccc3c2)c1",
    "Measured result": 6.71
  },
  {
    "Sample smiles": "Cc1nc(-c2ccc(OCC(C)C)c(C#N)c2)sc1C(=O)NCCCCCCC(=O)NO",
    "Measured result": 8.18
  }
]

Now for the molecule whose pIC50 we want.
State, in one line, measured pIC50 of CC#Cn1cc(C#N)c2cc(-c3cc(C(=O)O)no3)ccc21
6.24

---

Record set: IC50 | Xanthine dehydrogenase/oxidase (Bos taurus) | literature, multiple sources.
Lab note: compare IC50 with 200 nM, writing criterion met if less and criterion not met if equal or more.

[
  {
    "Sample smiles": "O=C(O)c1ccc(O)c(/C=C/C(=O)c2ccc3c(c2)CCC3)c1",
    "Cat": "criterion not met"
  },
  {
    "Sample smiles": "O=C(O)c1ccc(O)c(/C=C/C(=O)c2ccc3ccccc3c2)c1",
    "Cat": "criterion not met"
  },
  {
    "Sample smiles": "Cc1nc(-c2ccc(OCC(C)C)c(C#N)c2)sc1C(=O)NCc1ccc(C(=O)NO)cc1",
    "Cat": "criterion met"
  }
]

Identify whether the compound O=C(O)c1ccc(O)c(/C=C/C(=O)c2ccc3c(c2)CCO3)c1 records IC50 below 200 nM.
criterion met

Please state whether IC50 is below 200 nM for CCOc1ccc(C(=O)/C=C/c2cc(C(=O)O)ccc2O)cc1
criterion not met

A record lists CC(C)n1cc(C#N)c2cc(-c3cc(C(=O)O)no3)ccc21 . Is its IC50 below 200 nM?
criterion met

Quick check: IC50 of Cc1nc(-c2ccc(OCC(C)C)c(C#N)c2)sc1C(=O)NCc1ccc(NC(=O)CCCCCCC(=O)Nc2ccccc2N)cc1 under 200 nM?
criterion not met

Input Cc1nc(-c2ccc(OCC(C)C)c(C#N)c2)sc1C(=O)NCc1ccc(NC(=O)CCCCCCCC(=O)NO)cc1 ; condition: IC50 strictly below 200 nM. Does it hold?
criterion not met

Report whether reported IC50 is lower than 200 nM (strictly) for CC(=O)c1ccc(C(=O)/C=C/c2cc(C(=O)O)ccc2O)cc1
criterion not met

Please indicate whether the reported IC50 of CCCOc1ccc(C(=O)/C=C/c2cc(C(=O)O)ccc2O)cc1 is strictly below 200 nM.
criterion not met

---

Let's look at some pIC50 data for Xanthine dehydrogenase/oxidase (Bos taurus) that I collected from the literature.
Numbers only, as −log10 of the molar value.

[
  {
    "Sample smiles": "O=C(O)c1ccc(O)c(/C=C/C(=O)c2cccnc2)c1",
    "Outcome measure": "pIC50",
    "Measured result": 6.53
  },
  {
    "Sample smiles": "C#CCOc1ccc(C(=O)/C=C/c2cc(C(=O)O)ccc2O)cc1",
    "Outcome measure": "pIC50",
    "Measured result": 6.56
  },
  {
    "Sample smiles": "N#Cc1cn(Cc2cccc(Cl)c2)c2ccc(-c3cc(C(=O)O)no3)cc12",
    "Outcome measure": "pIC50",
    "Measured result": 5.74
  },
  {
    "Sample smiles": "N#Cc1cn(C2CCCC2)c2ccc(-c3cc(C(=O)O)no3)cc12",
    "Outcome measure": "pIC50",
    "Measured result": 6.85
  },
  {
    "Sample smiles": "Cc1ccccc1Cn1cc(C#N)c2cc(-c3cc(C(=O)O)no3)ccc21",
    "Outcome measure": "pIC50",
    "Measured result": 6.59
  },
  {
    "Sample smiles": "CCn1cc(C#N)c2cc(-c3cc(C(=O)O)no3)ccc21",
    "Outcome measure": "pIC50",
    "Measured result": 6.25
  },
  {
    "Sample smiles": "O=C(O)c1ccc(O)c(/C=C/C(=O)c2ccc3c(c2)OCCO3)c1",
    "Outcome measure": "pIC50",
    "Measured result": 6.73
  },
  {
    "Sample smiles": "CCCCCn1cc(C#N)c2cc(-c3cc(C(=O)O)no3)ccc21",
    "Outcome measure": "pIC50",
    "Measured result": 6.22
  },
  {
    "Sample smiles": "C=CCOc1ccc(C(=O)/C=C/c2cc(C(=O)O)ccc2O)cc1",
    "Outcome measure": "pIC50",
    "Measured result": 6.39
  },
  {
    "Sample smiles": "O=C(O)c1ccc(O)c(/C=C/C(=O)c2ccc3c(c2)CCN3)c1",
    "Outcome measure": "pIC50",
    "Measured result": 7.19
  }
]

For each entry beneath this line, provide reported pIC50.
1. C=CCn1cc(C#N)c2cc(-c3cc(C(=O)O)no3)ccc21
2. CC(C)Cn1cc(C#N)c2cc(-c3cc(C(=O)O)no3)ccc21

1: 6.41; 2: 6.62

Parameter requested: pIC50. Apply to each item below.
1. CC(C)=Cn1cc(C#N)c2cc(-c3cc(C(=O)O)no3)ccc21
2. Cc1nc(-c2ccc(OCC(C)C)c(C#N)c2)sc1C(=O)Nc1ccccc1N
3. N#Cc1cn(Cc2ccccc2F)c2ccc(-c3cc(C(=O)O)no3)cc12
4. COc1ccc(C(=O)/C=C/c2cc(C(=O)O)ccc2O)cc1
5. CCCn1cc(C#N)c2cc(-c3cc(C(=O)O)no3)ccc21

6.72
7.12
6.51
6.58
6.49

Batch request: pIC50 per item, same order as input.
1. O=C(O)c1ccc(O)c(/C=C/C(=O)c2ccccn2)c1
2. CNc1ccc(C(=O)/C=C/c2cc(C(=O)O)ccc2O)cc1

6.51
6.99
